Entry source: ChEMBL document CHEMBL5291721

AC50 data for Growth hormone secretagogue receptor type 1 (Homo sapiens, UniProt Q92847) follow.

Known AC50 results, listed for orientation:
MOLECULE | MEASURED ATTRIBUTE | VALUE OBSERVED
C=C1CC[C@@]2(O)[C@H]3Cc4ccc(O)c5c4[C@@]2(CCN3CC2CC2)[C@H]1O5 | AC50 | > 30 µM
CN1C(=O)COc2c(C(=O)NC3CN4CCC3CC4)cc(Cl)cc21 (configuration not stated) [AZASETRON] | AC50 | > 30 µM
COc1ccc2c(c1)c(CC(=O)OCC(=O)O)c(C)n2C(=O)c1ccc(Cl)cc1 [ACEMETACIN] | AC50 | > 30 µM
CN[C@@H]1[C@H](O)[C@H](NC)[C@H]2O[C@@]3(O)C(=O)C[C@@H](C)O[C@H]3O[C@@H]2[C@H]1O [SPECTINOMYCIN] | AC50 | > 10 µM
COc1cc(Nc2c(C#N)cnc3cc(OCCCN4CCN(C)CC4)c(OC)cc23)c(Cl)cc1Cl [BOSUTINIB] | AC50 | 4.3 µM
CCOC(=O)[C@H](CCc1ccccc1)N[C@@H](C)C(=O)N1CCC[C@H]1C(=O)O | AC50 | > 30 µM
COc1cc2c(cc1OC)C(=O)C(CC1CCN(Cc3ccccc3)CC1)C2 (configuration not stated) [DONEPEZIL] | AC50 | > 30 µM
CC(Cc1ccccc1)NCCC(c1ccccc1)c1ccccc1 (configuration not stated) [PRENYLAMINE] | AC50 | 3 µM
Cc1cccc(C)c1NC(=O)C1CCCCN1C (configuration not stated) [MEPIVACAINE] | AC50 | > 30 µM
Cc1c(Cl)cccc1Nc1ccccc1C(=O)O [TOLFENAMIC ACID] | AC50 | > 30 µM

Then there is this molecule:
Asked: Find the measured AC50 of CC(=O)N[C@H]1[C@H]([C@H](O)[C@H](O)CO)OC(C(=O)O)=C[C@@H]1N=C(N)N [ZANAMIVIR] with Growth hormone secretagogue receptor type 1 (Homo sapiens, UniProt Q92847) as test system.
Sequence (Q92847 whole entry): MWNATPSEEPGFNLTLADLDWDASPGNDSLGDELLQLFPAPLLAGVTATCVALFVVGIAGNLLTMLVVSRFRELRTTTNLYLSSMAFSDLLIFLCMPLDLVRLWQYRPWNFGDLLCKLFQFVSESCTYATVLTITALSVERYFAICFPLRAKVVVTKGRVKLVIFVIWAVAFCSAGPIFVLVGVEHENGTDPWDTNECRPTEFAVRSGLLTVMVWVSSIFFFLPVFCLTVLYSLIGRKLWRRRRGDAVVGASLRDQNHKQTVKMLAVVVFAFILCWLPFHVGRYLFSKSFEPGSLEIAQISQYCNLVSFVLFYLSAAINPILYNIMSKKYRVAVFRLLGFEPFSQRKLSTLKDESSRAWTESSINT
Given back: > 30 µM

* * *

- ASSAYED SYSTEM: Alpha-2A adrenergic receptor (Homo sapiens); also: assay procedure not described here
- Sequence (P08913 whole entry): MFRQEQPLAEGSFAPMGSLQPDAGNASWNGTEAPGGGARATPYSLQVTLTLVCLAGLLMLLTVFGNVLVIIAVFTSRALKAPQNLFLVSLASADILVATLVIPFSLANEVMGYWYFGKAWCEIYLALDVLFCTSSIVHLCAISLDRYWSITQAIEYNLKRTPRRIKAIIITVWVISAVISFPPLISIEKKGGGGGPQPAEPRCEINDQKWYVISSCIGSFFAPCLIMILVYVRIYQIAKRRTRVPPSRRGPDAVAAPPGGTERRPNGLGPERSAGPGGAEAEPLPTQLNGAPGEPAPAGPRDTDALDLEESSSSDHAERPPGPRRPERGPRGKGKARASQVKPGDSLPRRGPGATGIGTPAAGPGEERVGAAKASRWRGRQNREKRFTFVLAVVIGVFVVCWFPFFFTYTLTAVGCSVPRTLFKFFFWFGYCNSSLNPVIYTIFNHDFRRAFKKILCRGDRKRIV
- Format: functional, cell-based
MEASURED ATTRIBUTE: AC50

Known AC50 results, listed for orientation:
COMPOUND | AC50
NS(=O)(=O)c1cc2c(cc1Cl)NCNS2(=O)=O [HYDROCHLOROTHIAZIDE] | > 10 µM
CN(C)C(=O)OC1N=C(c2ccccc2)c2cc(Cl)ccc2N(C)C1=O (stereo not drawn) [CAMAZEPAM] | > 10 µM

Then there is this compound:
Asked: Given the compound O=C1CN=C(c2ccccc2)c2cc(Cl)ccc2N1CC(F)(F)F [HALAZEPAM] , write its reported AC50.
Given back: > 30 µM

* * *

- ASSAYED SYSTEM: Progesterone receptor (Homo sapiens); also: assay procedure not described here
- Sequence (P06401 whole entry): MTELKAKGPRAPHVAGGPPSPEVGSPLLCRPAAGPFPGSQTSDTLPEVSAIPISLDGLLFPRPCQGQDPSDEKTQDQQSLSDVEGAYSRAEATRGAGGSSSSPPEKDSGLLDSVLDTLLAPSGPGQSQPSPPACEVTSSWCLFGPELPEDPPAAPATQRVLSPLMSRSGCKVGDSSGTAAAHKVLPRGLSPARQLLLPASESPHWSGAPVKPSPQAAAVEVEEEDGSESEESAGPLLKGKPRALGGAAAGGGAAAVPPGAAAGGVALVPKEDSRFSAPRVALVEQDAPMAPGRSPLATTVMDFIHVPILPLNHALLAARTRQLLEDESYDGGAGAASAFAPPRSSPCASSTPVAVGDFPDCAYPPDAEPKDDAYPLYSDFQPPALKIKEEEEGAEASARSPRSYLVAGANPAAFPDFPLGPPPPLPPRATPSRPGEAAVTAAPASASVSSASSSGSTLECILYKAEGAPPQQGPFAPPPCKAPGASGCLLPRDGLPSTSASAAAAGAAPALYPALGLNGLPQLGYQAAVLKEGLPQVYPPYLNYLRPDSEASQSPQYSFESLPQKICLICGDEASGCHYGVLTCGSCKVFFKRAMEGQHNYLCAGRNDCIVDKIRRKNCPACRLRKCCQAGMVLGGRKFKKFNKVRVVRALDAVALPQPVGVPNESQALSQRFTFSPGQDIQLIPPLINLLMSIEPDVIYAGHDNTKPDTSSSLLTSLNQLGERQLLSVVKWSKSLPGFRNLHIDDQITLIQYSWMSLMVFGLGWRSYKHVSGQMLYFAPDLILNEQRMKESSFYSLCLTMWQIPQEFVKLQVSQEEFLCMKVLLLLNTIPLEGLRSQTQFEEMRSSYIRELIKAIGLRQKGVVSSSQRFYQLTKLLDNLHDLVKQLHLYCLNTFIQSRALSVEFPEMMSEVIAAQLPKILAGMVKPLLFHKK
- Assay type: functional
MEASURED ATTRIBUTE: AC50

MOLECULE | AC50
CC(=O)N[C@H]1[C@H]([C@H](O)[C@H](O)CO)OC(C(=O)O)=C[C@@H]1N=C(N)N | > 30 µM

Asked: Given the molecule CC(=O)c1ccc2c(c1)N(CCCN1CCN(CCO)CC1)c1ccccc1S2 , write its reported AC50.
Given back: > 30 µM

Asked: Given the molecule CN1C(=O)CC(=O)N(c2ccccc2)c2cc(Cl)ccc21 , write its reported AC50.
Given back: > 10 µM
